Assay: Pharmacokinetic evaluation in Mice (Table 3)
Type: in vivo
Settings: mouse, in vivo; Mice, Table 3, PO 0.5 mg/kg
Description: Aza-T-dCyd was administered orally and intravenously at various concentrations to Mice, Rats and Dogs to determine the PK profile.
measured endpoint: AUC(0-inf) (ng·h/mL)
Your answer should be a plain number; it is taken to be in ng·h/mL.

Please report the recorded AUC(0-inf) for Nc1ncn([C@H]2CC(O)[C@@H](CO)S2)c(=O)n1 (stereo partly shown) . 68.5

* * *

tested on: EM-2; test: drug activity profiling cytotoxicity; format: cell-based; details: Homo sapiens; EM-2 cell line, CML; read-out: Aza-T-dCyd IC50
measured endpoint: pIC50
Kindly note that pIC50 refers to -log10 of the concentration in mol/L and answer with the value alone.

Please report the recorded pIC50 for Nc1ncn([C@H]2CC(O)[C@@H](CO)S2)c(=O)n1 (stereo partly shown) [Aza-T-dCyd, 4′-thio-5-aza-2′-deoxycytidine] . 6.59

* * *

assay: Pharmacokinetic evaluation in Mice (Table 4); details: mouse, in vivo, Table 4, PO 10 mg/kg
measured endpoint: AUC(0-t) (ng·h/mL)
Your answer should be a plain number; it is taken to be in ng·h/mL.

Please report the recorded AUC(0-t) for Nc1ncn([C@H]2CC(O)[C@@H](CO)S2)c(=O)n1 (stereo partly shown) . 1340

* * *

assay: Pharmacokinetic evaluation in Mice (Table 4); settings: mouse, in vivo, Table 4, PO 0.5 mg/kg
measured endpoint: AUC(0-inf) (ng·h/mL)
Your answer should be a plain number; it is taken to be in ng·h/mL.

Please report the recorded AUC(0-inf) for Nc1ncn([C@H]2CC(O)[C@@H](CO)S2)c(=O)n1 (stereo partly shown) [Aza-T-dCyd, 4′-thio-5-aza-2′-deoxycytidine] . 131

* * *

system: TF-1; experiment: drug activity profiling cytotoxicity; format: cell-based; settings: Homo sapiens; TF-1 cell line, Erythroleukemia; read-out: Aza-T-dCyd IC50
measured endpoint: IC50 (nM)
Your answer should be a plain number; it is taken to be in nM.

Please report the recorded IC50 for Nc1ncn([C@H]2CC(O)[C@@H](CO)S2)c(=O)n1 (stereo partly shown) . 733

* * *

test system: C32TG; test: drug activity profiling cytotoxicity; assay type: cell-based; details: C32TG cell line, Skin (Melanoma); read-out: Aza-T-dCyd IC50
measured endpoint: pIC50
Kindly note that pIC50 refers to -log10 of the concentration in mol/L and answer with the value alone.

Record Nc1ncn([C@H]2CC(O)[C@@H](CO)S2)c(=O)n1 (stereo partly shown) [Aza-T-dCyd, 4′-thio-5-aza-2′-deoxycytidine] : what is its pIC50 with C32TG? 6.02

* * *

system: WiDr; test: drug activity profiling cytotoxicity; format: cell-based; details: Homo sapiens; WiDr cell line, Colon; read-out: Aza-T-dCyd IC50
measured endpoint: IC50 (nM)
Your answer should be a plain number; it is taken to be in nM.

Record Nc1ncn([C@H]2CC(O)[C@@H](CO)S2)c(=O)n1 (stereo partly shown) [Aza-T-dCyd, 4′-thio-5-aza-2′-deoxycytidine] : what is its IC50 with WiDr? 263

* * *

Test: Pharmacokinetic evaluation in Rat
Assay type: in vivo
Settings: in vivo; Rat, PO 1 mg/kg; read-out: T½ (converted)
Procedure: Aza-T-dCyd was administered orally and intravenously at various concentrations to Mice, Rats and Dogs to determine the PK profile.
measured endpoint: half-life

Please report the recorded half-life for Nc1ncn([C@H]2CC(O)[C@@H](CO)S2)c(=O)n1 (stereo partly shown) . 6.3 h

Measured values drawn from patent US12708630B2 for this set.
